Tested on: SW620
Experiment: cells
Set-up: species or system SW620 MTHFD2-/-, HCT116, PA-TU-8988T; Resazurin cell viability dose-response in 384-well plates, fluorescence at 595 nm, logistic fit
Conditions: Homo sapiens, SW-620, 96 h, Figure 1=2e; C=RPMI+GlutaMAX (10% FBS, 1% P/S); D=Vehicle; 96 h viability, no metabolite rescue (vehicle); read-out: EC50 compound
property_label: EC50 (nM)
Just the number please, in nM, no unit attached.

State, in one line, measured EC50 of CN(Cc1cnc2nc(N)nc(N)c2n1)c1ccc(C(=O)N[C@@H](CCC(=O)O)C(=O)O)cc1
17

====

Tested on: SW620 WT
Assay: cells
Set-up: species or system SW620 MTHFD2-/-, HCT116, PA-TU-8988T; Resazurin cell viability dose-response in 384-well plates, fluorescence at 595 nm, logistic fit
Conditions: Homo sapiens, SW-620, 96 h, Figure 1=Extended Data Fig. 3f; C=RPMI+GlutaMAX (5% dFBS, 1% P/S, 10 uM Hypoxanthine); D=Vehicle; 96 h viability, no metabolite rescue (vehicle); read-out: EC50 compound
property_label: EC50
Remember to put the unit after the number in your answer.

Give EC50 for Nc1nc(N)c(CC(=O)Nc2cnc(C(=O)N[C@@H](CCC(=O)O)C(=O)O)c(F)c2)c(=O)[nH]1 tested on SW620 WT.
16.9 nM
